Tested on: rice
Assay: Test C flooded paddy test
Format: in vivo, Oryza sativa
Details: 125 g ai/ha, scale 0 to 100 (0 no effect, 100 complete control)
Outcome Measure: Rice plant response rating
Just the number, please.

// known answers, use as guide
CCn1nc(C(C)(C)C)cc1C(=S)Nc1cc(C(=S)N(C)C)ccc1F [Compound 305] = 80
CCn1nc(C(C)(C)C)cc1C(=O)Nc1cccc(C(=O)N2CCOCC2)n1 [Compound 247] = 0
CCOC(=O)c1cccc(NC(=O)c2cc(C(C)(C)C)nn2C)n1 [Compound 313] = 20

## Task Can you look up the measured Rice plant response rating of CCNC(=O)c1cccc(NC(=O)c2nn(C(C)(C)C)cc2Cl)c1 [Compound 219] for me?
## Result 0

## Task Please answer likewise for CCn1nc(C(C)(C)C)c(F)c1C(=O)Nc1cccc(C(=O)N(C)C)n1 [Compound 274]
## Result 0

## Task Please answer likewise for C=CCNC(=O)c1cccc(NC(=O)c2sc(C(C)(C)C)nc2CC)c1 [Compound 207]
## Result 45

----------
System: Italian ryegrass
Experiment: Test E pre-/postemergence herbicide test
Type: in vivo, Lolium multiflorum
Conditions: Preemergence; 500 g ai/ha; scale 0 (no effect) to 100 (complete control)
Outcome Measure: Plant response rating, Ryegrass, Italian
Just the number, please.

CCn1nc(C2(C)CC2)cc1C(=O)Nc1cc(C(=O)N(C)C)ccc1F = 100
CCNC(=O)c1ccc(F)c(NC(=O)c2cc(C(C)(C)C)nn2CC)c1 = 95
CCc1nn(C(C)(C)C)nc1C(=O)Nc1cccc(C(=S)N(C)C)c1 = 95

Then this compound:
## Task # get_value(readout= Plant response rating, Ryegrass, Italian, system= Italian ryegrass) for CCNC(=O)c1cccc(NC(=O)c2nn(C(C)(C)C)nc2C)c1
## Result 80

----------
System: woolly cupgrass
Experiment: Test C pre-/postemergence herbicide test
Assay type: in vivo, Eriochloa villosa
Conditions: 62 g ai/ha; preemergence
From the text: […]
Item-by-item account of Plant response rating (0 = no effect, 100 = complete control), Cupgrass, Woolly

// known answers, use as guide
C=CCNC(=O)c1cccc(NC(=O)c2cc(C(C)(C)C)nn2CC)c1 = 10
CCn1nc(C(C)(C)C)cc1C(=O)Nc1cccc2c1CN(C)C2=O = 0
CCNC(=O)c1cc(NC(=O)c2cc(C(C)(C)C)nn2CC)ccc1F = 0

Then this compound:
## Task Can you look up the measured Plant response rating (0 = no effect, 100 = complete control), Cupgrass, Woolly of CCCN1CCc2c(NC(=O)c3cc(C(C)(C)C)nn3CC)cccc2C1=O for me?
## Result 0

----------
Test system: giant foxtail
Experiment: Test A pre-/postemergence herbicide test
Assay type: in vivo, Setaria faberi
Settings: Postemergence, 2000 g ai/ha; 0 to 100 scale, 0 no effect, 100 complete control
Use Satisfied when the recorded Plant response rating, Foxtail, Giant is no lower than 50; use Not satisfied when it is lower.

C=Cn1nc(C(C)(C)C)cc1C(=O)Nc1cccc(C(C)=O)c1 = Not satisfied
CCCOC(=O)c1cccc(NC(=O)c2cc(C(C)(C)C)nn2CC)c1C = Not satisfied
CCOC(=O)c1cccc(NC(=O)c2cc(C(C)(C)C)nn2CC)c1C = Satisfied
CC(=NO)c1cc(NC(=O)c2cc(C(C)(C)C)nn2C)ccc1F = Satisfied
CCNC(=O)c1cc(NC(=O)c2cc(C(C)(C)C)nn2CC)ccc1F = Satisfied

## Task hey, is Plant response rating, Foxtail, Giant for this one >= 50? CCN(CC)C(=O)c1cc(NC(=O)c2cc(C(C)(C)C)nn2CC)ccc1F
## Result Not satisfied

## Task Please answer likewise for CCn1nc(C(C)(C)C)cc1C(=O)Nc1cccc(C(=O)OCC(F)(F)F)c1
## Result Not satisfied

----------
Tested on: corn
Assay: Test B pre-/postemergence herbicide test
Type: in vivo, Zea mays
Conditions: 125 g ai/ha; visual rating, scale 0 (no effect) to 100 (complete control); postemergence
Outcome Measure: Corn plant response rating
Just the number, please.

// known answers, use as guide
CCn1nc(C(C)(C)C)cc1C(=O)Nc1cccc(OC(F)F)c1 [Compound 332] = 0
CCn1nc(C(C)(C)C)cc1C(=O)Nc1cc(OC)ccc1OC [Compound 297] = 10
CCOC(=O)c1ccc(F)c(NC(=S)c2cc(C(C)(C)C)nn2CC)c1 [Compound 346] = 0
CCOC(=O)c1cccc(NC(=O)c2nn(C(C)(C)CC)nc2CC)c1 [Compound 375] = 20

Then this molecule:
## Task Can you look up the measured Corn plant response rating of CCc1nn(C2CCCC2)nc1C(=O)Nc1cccc(C(=O)N2CC=CC2)c1 [Compound 354] for me?
## Result 0

----------
Item-by-item account of Cocklebur plant response rating
Tested on: cocklebur
Assay: Test B pre-/postemergence herbicide test
Assay type: in vivo, Xanthium strumarium
Conditions: postemergence, 125 g ai/ha; scale 0 to 100
Protocol: […] At the same time, plants selected from these crop and weed species and also blackgrass (Alopecurus myosuroides Huds.), wheat (Triticum aestivum L.) and wild oat (Avena fatua L.) were treated with postemergence applications of test chemicals formulated in the same manner. […] Treated plants and controls were maintained in a greenhouse for 13 to 15 days, after which time all species were compared to controls and visually evaluated. […]
Just the number, please.

// known answers, use as guide
CCc1nn(C(C)C)nc1C(=S)Nc1cccc(C(=S)N(C)C)c1 = 0
CCN(CC)C(=O)c1cncc(NC(=O)c2nn(C(C)(C)C)nc2C)c1 = 0
CCNC(=O)c1cccc(NC(=O)c2nn(C(C)(C)C)nc2Br)c1 = 50

## Task Can you look up the measured Cocklebur plant response rating of CCOC(=O)c1cccc(NC(=O)c2nn(C(C)(C)C)nc2Br)c1 for me?
## Result 40

## Task Please answer likewise for C=CCNC(=O)c1ccc(F)c(N(C(C)=O)C(=O)c2cc(C(C)(C)C)nn2CC)c1
## Result 50

----------
System: large crabgrass
Assay: Test B pre-/postemergence herbicide test
Format: in vivo, Digitaria sanguinalis
Details: 500 g ai/ha; visual rating, 0 = no effect, 100 = complete control; preemergence
Item-by-item account of Plant response rating, Crabgrass, Large
Just the number, please.

CCn1nc(C(C)(C)C)cc1C(=O)Nc1cc(OC)ccc1F = 0
CCc1nn(C2CCCC2)nc1C(=O)Nc1cccc(C(=O)N2CC=CC2)c1 = 80
CCc1nc(C(C)(C)C)sc1C(=O)Nc1cccc(C(=O)N(C)C)c1 = 100

## Task Can you look up the measured Plant response rating, Crabgrass, Large of CCNC(=O)c1ccc(OC)c(NC(=O)c2cc(C(C)(C)C)nn2CC)n1 for me?
## Result 100

## Task Please answer likewise for CCn1nc(C(C)(C)C)cc1C(=O)Nc1cccc(C(=O)N2CCOCC2)n1
## Result 80

## Task Please answer likewise for C=CCN(C)C(=O)c1cccc(NC(=O)c2cc(C(C)(C)C)nn2CC)c1
## Result 70

----------
Test system: rice
Test: Test C flooded paddy test
Format: in vivo, Oryza sativa
Conditions: 500 g ai/ha, visual rating after 12 to 14 days, scale 0 to 100 (0 no effect, 100 complete control)
Outcome Measure: Plant response rating, Rice
Just the number, please.

## Task Can you look up the measured Plant response rating, Rice of CCn1nc(C(C)(C)C)cc1C(=O)Nc1cccc(OC(F)F)c1 for me?
## Result 70

## Task Please answer likewise for C#CCNC(=O)c1cccc(NC(=O)c2nn(C(C)(C)C)nc2C)c1
## Result 60

## Task Please answer likewise for CCn1nc(C(C)(C)C)cc1C(=O)Nc1cccc(C(N)=O)n1
## Result 75

## Task Please answer likewise for CCc1nn(C(C)C)nc1C(=S)Nc1cccc(C(=S)N(C)C)c1
## Result 60

## Task Please answer likewise for Cc1nn(C(C)C)nc1C(=O)Nc1cccc(C(=O)N(C)C)c1
## Result 50

## Task Please answer likewise for C#CCNC(=O)c1cccc(NC(=O)c2cc(C(C)(C)C)nn2CC)c1
## Result 50

## Task Please answer likewise for CC(=NO)c1cccc(NC(=O)c2cc(C(C)(C)C)nn2CCF)c1
## Result 75

## Task Please answer likewise for CCn1nc(C(C)(C)C)cc1C(=S)Nc1cc(C(=S)N(C)C)ccc1F
## Result 85

## Task Please answer likewise for CCn1nc(C(C)(C)C)cc1C(=O)Nc1cc(C(=S)N(C)C)ccc1F
## Result 90

## Task Please answer likewise for CCOC(=O)c1cc(N(C(C)=O)C(=O)c2cc(C(C)(C)C)nn2CC)ccc1C
## Result 0

----------
Tested on: large crabgrass
Test: Test E pre-/postemergence herbicide test
Type: in vivo, Digitaria sanguinalis
Conditions: Preemergence, 62 g ai/ha; scale 0 to 100
Description: […] At the same time, plants selected from these weed species were treated with postemergence applications of some of the test chemicals formulated in the same manner. […] Treated plants and controls were maintained in a greenhouse for 12 to 14 days, after which time all species were compared to controls and visually evaluated. […]
Item-by-item account of Plant response rating, Crabgrass, Large
Just the number, please.

// known answers, use as guide
CCNC(=O)c1ccc(F)c(NC(=O)c2cc(C(C)(C)C)nn2CC)c1 = 70
CCc1nn(C(C)(C)C)nc1C(=O)Nc1cccc(C(=O)N(C)CC)c1 = 90
Cc1nn(C(C)(C)C)nc1C(=O)Nc1cccc(C(=O)N2CC=CC2)c1 = 10

Then this compound:
## Task # get_value(readout= Plant response rating, Crabgrass, Large, system= large crabgrass) for CCn1nc(C2(C)CC2)cc1C(=O)Nc1cc(C(=O)N(C)C)ccc1F
## Result 90
